Tested on: immature LC (Langerhans cells)
Experiment: Activation of immature LC: HLA-DR and CD86 expression by flow cytometry
Format: cell-based, human
Settings: TNFα 1-10 ng/ml; result in words
quantity-kind: activation of immature LC (class II / CD86, DRhi-CD86hi) in the presence of TNFα

compound: CC1=C(/C=C/C(C)=C\C=C\C(C)=C\C(=O)O)C(C)(C)CCC1 [Compound 9cRA, 9-cis retinoic acid, reference compound]
val: upregulate

compound: CC1(C)C(=O)C(C)(C)c2cc(C(=O)Nc3ccc(C(=O)O)cc3)ccc21
val: upregulate

---

Tested on: immature LC (Langerhans cells)
Assay: Apoptosis of immature LC, flow cytometry of PI stained nuclei (sub 2N particles) / annexin V
Format: cell-based, human
Settings: 100 nM SR11237 + 1 nM ligand
quantity-kind: percentage of apoptotic (<2N) particles

Here are 4 molecules together with their reported answers.
molecular-string: CC1(C)C(=O)C(C)(C)c2cc(C(=O)Nc3ccc(C(=O)O)cc3)ccc21
assay-target: immature LC (Langerhans cells)
quantity-kind: percentage of apoptotic (<2N) particles
val: 6 ± 3%

molecular-string: CC1(C)CC=C(C#Cc2ccccc2)c2cc(/C=C/c3ccc(C(=O)O)cc3)ccc21
assay-target: immature LC (Langerhans cells)
quantity-kind: percentage of apoptotic (<2N) particles
val: ≦5%

molecular-string: CC1(C)CC=C(c2ccccc2)c2cc(/C=C/c3ccc(C(=O)O)cc3Cl)ccc21
assay-target: immature LC (Langerhans cells)
quantity-kind: percentage of apoptotic (<2N) particles
val: ≦5%

molecular-string: CC1(C)CC=C(c2cnc3ccccc3c2)c2cc(C(=O)Nc3ccc(C(=O)O)cc3)ccc21
assay-target: immature LC (Langerhans cells)
quantity-kind: percentage of apoptotic (<2N) particles
val: ≦5%

We now examine a further molecule.
Problem: Would you kindly share the measured percentage of apoptotic (<2N) particles for CC1(C)CC=C(c2ccccc2)c2cc(/C=C/c3ccc(C(=O)O)cc3)ccc21 ?
Solution: ≦5%
